# Target: HLA-A*31:01
# Assay: IEDB peptide-MHC binding, purified MHC/competitive/radioactivity; filed as Kd, often an IC50 or EC50 that approximates it; bounds were set here for any values at or beyond the usual limits of such assays
# Assay Conditions: source organism: Dengue virus 2 Peru/IQT2913/1996
Readout Label: Kd (nM)
Express the result in nM but write the number alone.

IN: Report Kd, nothing else, for this sequence: `TTFITPMLR`
OUT: 27.1

---

# Target: HLA-B*07:02
# Assay: IEDB peptide-MHC binding, purified MHC/direct/fluorescence; filed as Kd, often an IC50 or EC50 that approximates it; bounds were set here for any values at or beyond the usual limits of such assays
# Assay Conditions: source organism: Mycobacterium tuberculosis variant bovis BCG str. Pasteur 1173P2
Readout Label: Kd (nM)
Express the result in nM but write the number alone.

IN: Report Kd, nothing else, for this sequence: `APPPFRLPL`
OUT: 77.5

---

# Target: HLA-B*44:03
# Assay: IEDB peptide-MHC binding, purified MHC/competitive/radioactivity; filed as Kd, often an IC50 or EC50 that approximates it; bounds were set here for any values at or beyond the usual limits of such assays
# Assay Conditions: source organism: SARS coronavirus Tor2
pKd: −log10 of the molar value.
Lab note: compare pKd against 6. Equal or greater, write T. Smaller, write F.

{"columns": ["Residue String", "Label"],
 "data": [
  ["VEYYPLLFIT", "F"],
  ["GETALALLL", "T"]
]}

IN: Is the recorded value of pKd equal to or greater than 6 for this sequence? `TEAFEKMVSL`
OUT: F

IN: Is the recorded value of pKd equal to or greater than 6 for this sequence? `SEGVPDLLV`
OUT: F

IN: Is the recorded value of pKd equal to or greater than 6 for this sequence? `TEHSWNADL`
OUT: T

IN: Is the recorded value of pKd equal to or greater than 6 for this sequence? `REMLAHAEET`
OUT: T

IN: Is the recorded value of pKd equal to or greater than 6 for this sequence? `VELKHFFFA`
OUT: F

---

# Target: HLA-B*46:01
# Assay: IEDB peptide-MHC binding, purified MHC/competitive/fluorescence; filed as Kd, often an IC50 or EC50 that approximates it; bounds were set here for any values at or beyond the usual limits of such assays
# Assay Conditions: source organism: Burkholderia pseudomallei K96243
pKd: −log10 of the molar value.
Readout Label: pKd

IN: For HLA-B*46:01, give the measured pKd of the entry `DELWRGLLA`
OUT: ≤ 4.70

---

# Target: HLA-A*33:01
# Assay: IEDB peptide-MHC binding, purified MHC/competitive/radioactivity; filed as Kd, often an IC50 or EC50 that approximates it; bounds were set here for any values at or beyond the usual limits of such assays
# Assay Conditions: source organism: Dengue virus 4 Philippines/H241/1956
Lab note: cut-off is 30 nM. Strictly less in Kd is T. Exactly 30 nM or more is F.

Observe how each entry below is paired with its result.
{"columns": ["Residue String", "Target", "Label"],
 "data": [
  ["SALTLHWFR", "HLA-A*33:01", "T"],
  ["EFGRAKGSR", "HLA-A*33:01", "F"]
]}

IN: Please let me know if `YQNKVVKVLR` shows Kd below 30 nM.
OUT: F

IN: Please let me know if `DTTPFGQQR` shows Kd below 30 nM.
OUT: F

IN: Please let me know if `ELTLDCEPR` shows Kd below 30 nM.
OUT: F

---

# Target: HLA-A*01:01
# Assay: IEDB peptide-MHC binding, purified MHC/direct/fluorescence; filed as Kd, often an IC50 or EC50 that approximates it; bounds were set here for any values at or beyond the usual limits of such assays
# Assay Conditions: source organism: Mammarenavirus lassaense
Readout Label: pKd
Scale explanation: pKd corresponds to minus log10 of a concentration expressed in moles per litre.

IN: Report pKd, nothing else, for this sequence: `YSQESPQSY`
OUT: 8.96

---

# Target: HLA-A*11:01
# Assay: IEDB peptide-MHC binding, purified MHC/direct/fluorescence; filed as Kd, often an IC50 or EC50 that approximates it; bounds were set here for any values at or beyond the usual limits of such assays
# Assay Conditions: source organism: dengue virus type 4
Readout Label: Kd
Express your answer as a number followed by its unit.

IN: For HLA-A*11:01, give the measured Kd of the entry `VVTLIPLCR`
OUT: 454 nM

---

# Target: HLA-A*26:02
# Assay: IEDB peptide-MHC binding, purified MHC/direct/fluorescence; filed as Kd, often an IC50 or EC50 that approximates it; bounds were set here for any values at or beyond the usual limits of such assays
# Assay Conditions: source organism: Yellow fever virus
pKd: −log10 of the molar value.
Readout Label: pKd

IN: For HLA-A*26:02, give the measured pKd of the entry `EAMDTISVF`
OUT: ≥ 9.00

---

# Target: HLA-B*58:01
# Assay: IEDB peptide-MHC binding, purified MHC/competitive/fluorescence; filed as Kd, often an IC50 or EC50 that approximates it; bounds were set here for any values at or beyond the usual limits of such assays
# Assay Conditions: source organism: Escherichia coli O139:H28 str. E24377A
Readout Label: pKd
Scale explanation: pKd corresponds to minus log10 of a concentration expressed in moles per litre.

IN: Report pKd, nothing else, for this sequence: `LKASGRYQW`
OUT: 6.06

---

# Target: HLA-A*03:01
# Assay: IEDB peptide-MHC binding, purified MHC/direct/fluorescence; filed as Kd, often an IC50 or EC50 that approximates it; bounds were set here for any values at or beyond the usual limits of such assays
# Assay Conditions: source organism: Entamoeba histolytica
Readout Label: Kd

IN: Report Kd, nothing else, for this sequence: `DFGYATMAK`
OUT: 1600 nM

---

# Target: HLA-C*12:03
# Assay: IEDB peptide-MHC binding, purified MHC/direct/fluorescence; filed as Kd, often an IC50 or EC50 that approximates it; bounds were set here for any values at or beyond the usual limits of such assays
# Assay Conditions: source organism: Mycobacterium tuberculosis variant bovis BCG str. Pasteur 1173P2
Readout Label: Kd (nM)
Express the result in nM but write the number alone.

IN: Report Kd, nothing else, for this sequence: `FLADYGWRL`
OUT: 413

---

# Target: HLA-B*40:01
# Assay: IEDB peptide-MHC binding, purified MHC/direct/fluorescence; filed as Kd, often an IC50 or EC50 that approximates it; bounds were set here for any values at or beyond the usual limits of such assays
# Assay Conditions: source organism: Escherichia coli O157:H7
pKd: −log10 of the molar value.
Readout Label: pKd

{"columns": ["Residue String", "pKd"],
 "data": [
  ["LPPERRQPF", "≤ 4.70"]
]}

IN: Report pKd, nothing else, for this sequence: `RRNDVARIF`
OUT: ≤ 4.70

---

# Target: HLA-B*15:01
# Assay: IEDB peptide-MHC binding, purified MHC/direct/fluorescence; filed as Kd, often an IC50 or EC50 that approximates it; bounds were set here for any values at or beyond the usual limits of such assays
# Assay Conditions: source organism: Campylobacter jejuni RM1221
Readout Label: Kd (nM)
Express the result in nM but write the number alone.

IN: Report Kd, nothing else, for this sequence: `VQKVNPAPK`
OUT: 1120

---

# Target: HLA-B*35:01
# Assay: IEDB peptide-MHC binding, purified MHC/competitive/radioactivity; filed as Kd, often an IC50 or EC50 that approximates it; bounds were set here for any values at or beyond the usual limits of such assays
# Assay Conditions: source organism: Dengue virus 2 Jamaica/1409/1983
Readout Label: Kd
Express your answer as a number followed by its unit.

{"columns": ["Residue String", "Target", "Kd"],
 "data": [
  ["DPASIAARGY", "HLA-B*35:01", "5.62 µM"]
]}

IN: Report Kd, nothing else, for this sequence: `MAAILAYTI`
OUT: 1.73 µM

---

# Target: HLA-A*30:01
# Assay: IEDB peptide-MHC binding, purified MHC/competitive/radioactivity; filed as Kd, often an IC50 or EC50 that approximates it; bounds were set here for any values at or beyond the usual limits of such assays
# Assay Conditions: source organism: Lymphocytic choriomeningitis virus (strain WE)
Readout Label: Kd (µM)
Express the result in µM but write the number alone.

IN: Report Kd, nothing else, for this sequence: `LTDNDDILM`
OUT: 19.2

---

Reported Kd by item:
# Target: HLA-B*46:01
# Assay: IEDB peptide-MHC binding, purified MHC/direct/fluorescence; filed as Kd, often an IC50 or EC50 that approximates it; bounds were set here for any values at or beyond the usual limits of such assays
# Assay Conditions: source organism: Cowpox virus

{"columns": ["Residue String", "Kd"],
 "data": [
  ["YPPPRYITV", "≥ 20 µM"]
]}

Could you now consider this next sequence?
IN: For HLA-B*46:01, give the measured Kd of the entry `YHRFGLYRL`
OUT: ≥ 20 µM
